Measured values drawn from patent US10428140B2 for this set.

biological target: SEAP-His (Homo sapiens, UniProt P05187); test: Selectivity ELISA of humanized antibodies for human Eph receptor; assay type: binding; settings: coated protein 1 nM
Sequence (P05187 23-511 limits assumed): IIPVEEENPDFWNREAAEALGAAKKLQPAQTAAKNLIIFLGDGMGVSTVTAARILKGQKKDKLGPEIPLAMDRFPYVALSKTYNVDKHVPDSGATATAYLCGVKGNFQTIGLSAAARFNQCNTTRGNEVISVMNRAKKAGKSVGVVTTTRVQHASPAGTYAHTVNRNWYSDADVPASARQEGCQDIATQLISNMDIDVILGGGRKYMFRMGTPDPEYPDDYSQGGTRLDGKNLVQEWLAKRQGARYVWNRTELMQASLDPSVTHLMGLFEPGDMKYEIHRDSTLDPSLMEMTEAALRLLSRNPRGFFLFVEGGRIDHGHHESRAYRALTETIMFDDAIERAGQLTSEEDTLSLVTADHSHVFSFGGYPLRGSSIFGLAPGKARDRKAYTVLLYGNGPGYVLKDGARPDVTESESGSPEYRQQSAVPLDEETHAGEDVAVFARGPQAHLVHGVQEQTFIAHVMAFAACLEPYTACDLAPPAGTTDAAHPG
Measured SEAP-His: absorbance at 450 nm, percentage with respect to hEphA4-SEAP-His as 100% accompanies every entry in the list below.
State just the number; it will be interpreted in %.

Below, each entry is followed by its recorded SEAP-His: absorbance at 450 nm, percentage with respect to hEphA4-SEAP-His as 100% result.
| molecule | test-value |
| --- | --- |
| 134 (antibody, V domains shown, synthetic humanized antibody heavy chain variable region sequence; synthetic humanized antibody light chain variable region sequence) VH: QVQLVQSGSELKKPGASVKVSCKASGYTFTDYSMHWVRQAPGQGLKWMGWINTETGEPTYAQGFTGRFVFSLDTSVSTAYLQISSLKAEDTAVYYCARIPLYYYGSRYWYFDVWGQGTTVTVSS VL: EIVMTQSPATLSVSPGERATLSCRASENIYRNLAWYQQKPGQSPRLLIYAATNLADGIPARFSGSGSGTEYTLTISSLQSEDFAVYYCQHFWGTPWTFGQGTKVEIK | 5.1 |
| 158 (antibody, V domains shown, synthetic humanized antibody heavy chain variable region sequence; synthetic humanized antibody light chain variable region sequence) VH: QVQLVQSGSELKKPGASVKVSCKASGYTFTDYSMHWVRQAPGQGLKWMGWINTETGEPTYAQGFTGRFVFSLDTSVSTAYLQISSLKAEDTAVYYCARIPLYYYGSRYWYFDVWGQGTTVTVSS VL: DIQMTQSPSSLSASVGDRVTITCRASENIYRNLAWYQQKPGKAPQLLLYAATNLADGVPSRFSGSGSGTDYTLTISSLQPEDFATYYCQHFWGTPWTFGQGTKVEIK | 6.3 |

Entry 86 (antibody, V domains shown, constant regions without entry; synthetic humanized antibody light chain variable region sequence; synthetic humanized antibody heavy chain variable region sequence) VL: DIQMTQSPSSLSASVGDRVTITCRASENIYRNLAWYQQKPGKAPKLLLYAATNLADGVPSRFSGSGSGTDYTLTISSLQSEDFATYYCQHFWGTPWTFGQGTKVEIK VH: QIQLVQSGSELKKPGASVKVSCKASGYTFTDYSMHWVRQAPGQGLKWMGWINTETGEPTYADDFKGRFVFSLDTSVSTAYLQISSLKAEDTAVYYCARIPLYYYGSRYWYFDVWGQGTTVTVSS needs its SEAP-His: absorbance at 450 nm, percentage with respect to hEphA4-SEAP-His as 100% filled in; supply it.
6.1

For the molecule 144 (antibody, V domains shown, synthetic humanized antibody heavy chain variable region sequence; synthetic humanized antibody light chain variable region sequence) VH: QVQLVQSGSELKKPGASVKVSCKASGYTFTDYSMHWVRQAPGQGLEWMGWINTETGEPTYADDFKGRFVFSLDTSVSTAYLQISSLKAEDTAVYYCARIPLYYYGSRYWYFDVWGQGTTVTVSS VL: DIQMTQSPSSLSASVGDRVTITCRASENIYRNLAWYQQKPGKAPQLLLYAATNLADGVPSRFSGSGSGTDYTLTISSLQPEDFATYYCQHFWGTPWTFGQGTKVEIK , give its measured SEAP-His: absorbance at 450 nm, percentage with respect to hEphA4-SEAP-His as 100% value.
5.7

// Input: 85 (antibody, V domains shown, constant regions without entry; synthetic humanized antibody light chain variable region sequence; synthetic humanized antibody heavy chain variable region sequence) VL: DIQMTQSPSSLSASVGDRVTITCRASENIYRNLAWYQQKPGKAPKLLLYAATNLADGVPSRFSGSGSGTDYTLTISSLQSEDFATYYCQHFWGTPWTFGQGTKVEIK VH: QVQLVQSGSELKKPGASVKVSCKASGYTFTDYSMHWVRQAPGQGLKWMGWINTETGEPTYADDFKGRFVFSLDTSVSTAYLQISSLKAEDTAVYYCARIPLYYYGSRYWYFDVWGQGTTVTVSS . Output its SEAP-His: absorbance at 450 nm, percentage with respect to hEphA4-SEAP-His as 100% only.
5.3

Give the reported value of SEAP-His: absorbance at 450 nm, percentage with respect to hEphA4-SEAP-His as 100% for this record: 151 (antibody, V domains shown, synthetic humanized antibody heavy chain variable region sequence; synthetic humanized antibody light chain variable region sequence) VH: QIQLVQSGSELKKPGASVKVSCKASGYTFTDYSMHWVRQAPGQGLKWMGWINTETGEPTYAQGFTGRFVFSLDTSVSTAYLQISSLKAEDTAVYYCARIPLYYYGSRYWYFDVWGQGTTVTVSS VL: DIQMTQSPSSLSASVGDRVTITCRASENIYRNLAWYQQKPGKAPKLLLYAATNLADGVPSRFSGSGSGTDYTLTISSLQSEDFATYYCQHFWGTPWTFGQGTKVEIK
6.8

Please look at this molecule and report its SEAP-His: absorbance at 450 nm, percentage with respect to hEphA4-SEAP-His as 100%: 152 (antibody, V domains shown, synthetic humanized antibody heavy chain variable region sequence; synthetic humanized antibody light chain variable region sequence) VH: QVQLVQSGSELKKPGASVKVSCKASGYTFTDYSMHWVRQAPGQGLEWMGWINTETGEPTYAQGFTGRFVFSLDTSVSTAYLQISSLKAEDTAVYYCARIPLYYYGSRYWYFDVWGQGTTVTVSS VL: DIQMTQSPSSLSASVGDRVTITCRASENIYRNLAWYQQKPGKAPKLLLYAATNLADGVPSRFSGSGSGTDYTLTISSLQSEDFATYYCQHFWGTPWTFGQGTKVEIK
5.4
